Source of measurements: paper PMC4155245

molecular target: SrtB (sortase B, CD630_27180) (Clostridioides difficile, UniProt Q183F3); construct: SrtBΔN26 (N-terminal transmembrane residues 2–25 replaced with a six-histidine tag); experiment: FRET peptide cleavage assay (d-PVPPKTGDS-e) with purified recombinant SrtBΔN26; type: biochemical
Sequence (Q183F3 entry or part of it): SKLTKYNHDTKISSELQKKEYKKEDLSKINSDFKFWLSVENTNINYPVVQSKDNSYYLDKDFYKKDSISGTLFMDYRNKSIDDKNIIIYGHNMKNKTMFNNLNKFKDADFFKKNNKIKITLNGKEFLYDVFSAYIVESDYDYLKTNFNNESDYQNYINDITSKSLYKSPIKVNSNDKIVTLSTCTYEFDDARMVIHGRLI
pIC50: −log10 of the molar value.
measure.name: pIC50

| molecular.string | measured.target | measure.name | val |
| --- | --- | --- | --- |
| C[N+](C)(C)CCSS(C)(=O)=O | SrtB (sortase B, CD630_27180) (Clostridioides difficile, UniProt Q183F3) | pIC50 | 3.54 |
